system: thoracic aorta of SH rats; assay: Vaso-relaxing effect on the thoracic aorta of SH rats (in vitro testing after one month treatment); type: in vivo, rat; details: aorta rings of SH rats treated for one month (dose per compound as in table), contracted with 10^-6 M methoxamine, acetylcholine 10^-5 M; unit assumed
# maps each entry to its vessel relaxing effect, Ach dose 10^-5 M
Numeric only. Scale: %

| COMPOUND | TARGET_OR_TEST_SYSTEM | RESULT_UNIT | vessel relaxing effect, Ach dose 10^-5 M |
| --- | --- | --- | --- |
| O=C(NOCC(O)CN1CCCCC1)c1ccc[n+]([O-])c1 (stereo not drawn) | thoracic aorta of SH rats | % | 90.3 |
| OC1CCN(CC2CON=C(c3cccnc3)N2)CC1 (stereo not drawn) | thoracic aorta of SH rats | % | 85.1 |
| O=C1CCCCN1CC1CON=C(c2cccnc2)N1 (single isomer, unassigned) | thoracic aorta of SH rats | % | 88 |
| c1cncc(C2=NOCC(CN3CCCCC3)N2)c1 (stereo not drawn) [Reference, reference compound] | thoracic aorta of SH rats | % | 80.2 |
| Cl.ClC(=NOCC(Cl)CN1CCCCC1)c1ccccc1 (stereo not drawn) | thoracic aorta of SH rats | % | 83.5 |

Here is the next item to consider.
-- ask State measured vessel relaxing effect, Ach dose 10^-5 M of the compound O.O.O=[N+]([O-])c1cccc(C(Cl)=NOCCC[N+]2([O-])CCCCC2)c1 with thoracic aorta of SH rats.
-- reply 84.9
